Experimental system: PD-L1 (Homo sapiens (Human), UniProt Q9NZQ7)
Sequence (Q9NZQ7 19-238): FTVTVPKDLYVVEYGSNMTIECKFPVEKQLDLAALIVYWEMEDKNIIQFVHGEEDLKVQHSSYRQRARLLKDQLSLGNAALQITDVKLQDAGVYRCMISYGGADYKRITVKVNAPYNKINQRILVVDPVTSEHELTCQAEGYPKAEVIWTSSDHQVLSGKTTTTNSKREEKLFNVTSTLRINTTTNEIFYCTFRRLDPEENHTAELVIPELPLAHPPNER
Sequence (Q9NZQ7 19-238): as the sequence (Q9NZQ7 19-238) above
Protocol description: PD-L1/PD-L1 dimerization biochemical protein-protein interaction assay (ALPHA)
Format: binding
Experimental setup: 0.5 nM His tagged PD-L1 and 0.5 nM FLAG tagged PD-L1, Table 4B, read-out: AC50 PDL1 Dimer 1 nM
Assay endpoint: AC50 (nM)

Molecule	Units	Observed measurement
COc1nc(O[C@H]2CCc3c(-c4cccc(-c5cc(C)c(CN6CC(C)(O)C6)c(OC)n5)c4Cl)cccc32)c(Cl)cc1CN1CC[C@@H](C(=O)O)C1	nM	49.7
COc1nc(-c2cccc(-c3cccc4c3CC[C@@H]4Oc3nc(OC)c(CN(C)CC(=O)O)cc3C(F)(F)F)c2Cl)ccc1CNC[C@@H]1CCC(=O)N1	nM	5.9
COc1nc(-c2cccc(-c3cccc4c3CC[C@@H]4Oc3nc(OC)c(CN4CC5(C(=O)O)CCC4CC5)cc3Cl)c2C#N)ccc1CNC[C@@H]1CCC(=O)N1	nM	48
COc1nc(-c2cccc(-c3cccc4c3CC[C@@H]4Oc3nc(OC)c(CNCC4(C(=O)O)CC4)cc3C(F)(F)F)c2Cl)ccc1CN[C@H]1C[C@](C)(O)C1	nM	17.7

[A] COc1nc(O[C@H]2CCc3c(-c4cccc(-c5cc(F)c(CNC[C@@H]6CCC(=O)N6)c(OC)n5)c4Cl)cccc32)c(C(F)(F)F)cc1CN1CC2(C(=O)O)CCC1CC2
[B] COc1nc(-c2cccc(-c3cccc4c3CC[C@@H]4Oc3nc(OC)c(CN4CC[C@@H](C(=O)N=S(C)(=O)N(CC(F)(F)F)CC(F)(F)F)C4)cc3Cl)c2Cl)ccc1CNC[C@@H]1CCC(=O)N1 (stereo partly drawn)
Qu. Could you check which of A and B has a smaller value for AC50? Give the label under which the chosen entry appears.
Ans. A

====

Experimental system: UniProt Q9NZQ7
Protocol description: PD-L1/PD-L1 dimerization biochemical protein-protein interaction assay (ALPHA)
Type: binding
Experimental setup: 0.5 nM His tagged PD-L1 and 0.5 nM FLAG tagged PD-L1, Table 4A, read-out: AC50 PDL1 Dimer 1 nM
Assay endpoint: AC50 (µM)

Chemical structure	Units	Observed measurement
COc1nc(-c2cccc(-c3cccc4c3CC[C@@H]4Nc3nc(OC)c(CN4CC[C@@H](C(=O)O)C4)cc3C(F)(F)F)c2Cl)ccc1CN1CC(C)(O)C1	µM	0.0281

[a] COc1nc(-c2cccc(-c3cccc4c3CC[C@@H]4Nc3nc(OC)c(CN4CC[C@@H](C(=O)O)C4)cc3C(F)(F)F)c2Cl)ccc1CN1CC2(CCC(=O)N2)C1
[b] COc1nc(-c2cccc(-c3cccc4c3CC[C@@H]4Nc3nc(OC)c(CN4CC5(CCC(=O)N5)C4)cc3Cl)c2Cl)ccc1CNC[C@@H]1CCC(=O)N1
Qu. Higher AC50 between a and b ? Give the label under which the chosen entry appears.
Ans. b

====

Experimental system: FFA1 (h) (GRP40) (Homo sapiens (Human), UniProt O14842)
Sequence (O14842 whole entry): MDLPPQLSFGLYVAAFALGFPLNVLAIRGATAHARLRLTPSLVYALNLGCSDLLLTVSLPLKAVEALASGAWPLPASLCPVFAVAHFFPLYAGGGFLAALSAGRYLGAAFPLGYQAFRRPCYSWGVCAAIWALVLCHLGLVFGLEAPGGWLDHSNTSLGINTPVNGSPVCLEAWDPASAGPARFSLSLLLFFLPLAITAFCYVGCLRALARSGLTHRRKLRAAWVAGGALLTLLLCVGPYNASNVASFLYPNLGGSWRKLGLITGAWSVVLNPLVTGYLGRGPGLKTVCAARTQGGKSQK
Protocol description: GPR40 functional assay, agonist effect (intracellular Ca2+, fluorimetry)
Type: cell-based
Experimental setup: HEK293, human recombinant GPR40 in HEK-293 cells, control 100 μM linoleic acid, 2nd replicate, read-out: % of control agonist response, 2nd
Assay endpoint: activity at 10 µM (%)

Below, each entry is followed by its recorded activity at 10 µM result.
Chemical structure	Units	activity at 10 µM
COc1nc(-c2cccc(-c3cccc4c3CC[C@@H]4Oc3nc(OC)c(CN4CC5(C(=O)O)CCC4CC5)nc3C)c2Cl)ccc1CNC[C@@H]1CCC(=O)N1	%	-0.5
COc1nc(-c2cccc(-c3cccc4c3CC[C@@H]4Nc3nc(OC)c(CNC4(C(=O)O)CC4)cc3C(F)(F)F)c2Cl)ccc1CNC[C@@H]1CCC(=O)N1	%	0.1

[1] COc1nc(-c2cccc(-c3cccc4c3CC[C@@H]4Oc3nc(OC)c(CNC4(C(=O)O)CC4)cc3C(F)(F)F)c2Cl)ccc1CNC[C@@H]1CCC(=O)N1
[2] COc1nc(-c2cccc(-c3cccc4c3CC[C@@H]4Nc3nc(OC)c(CN4CC5(C(=O)O)CCC4CC5)nc3C(F)(F)F)c2Cl)ccc1CNC[C@@H]1CCC(=O)N1
Qu. Could you check which of 1 and 2 has a smaller value for activity at 10 µM? Give the label under which the chosen entry appears.
Ans. 2
(2: -1.9%, 1: -0.5%)

====

Experimental system: PD-L1 (Homo sapiens (Human), UniProt Q9NZQ7)
Protocol description: PD-L1/PD-L1 dimerization biochemical protein-protein interaction assay (ALPHA)
Format: binding
Experimental setup: 0.5 nM His tagged PD-L1 and 0.5 nM FLAG tagged PD-L1, Table 4A, read-out: AC50 PDL1 Dimer 1 nM
Assay endpoint: AC50 (nM)

Chemical structure	AC50 (nM)
COc1nc(-c2cccc(-c3cccc4c3CC[C@@H]4Nc3nc(OC)c(CN4CC(C)(C(=O)O)C4)cc3C(F)(F)F)c2Cl)ccc1CNC[C@@H]1CCC(=O)N1	16.2
COc1cc(N[C@H]2CCc3c(-c4cccc(-c5ccc(CNC[C@@H]6CCC(=O)N6)c(OC)n5)c4Cl)cccc32)c(Cl)cc1CN1CC[C@@](C)(C(=O)O)C1	30.4
COc1nc(-c2cccc(-c3cccc4c3CC[C@@H]4Nc3nc(OC)c(CNCC(=O)O)nc3C(F)(F)F)c2Cl)ccc1CNC[C@H]1C[C@](C)(O)C1	22.3
COc1nc(-c2cccc(-c3cccc4c3CC[C@@H]4Nc3nc(OC)c(CN4CC(C(=O)O)C4)cc3C(F)(F)F)c2Cl)ccc1CN[C@H]1C[C@](C)(O)C1	29.6
COc1cc(N[C@H]2CCc3c(-c4cccc(-c5ccc(CNC[C@@H]6CCC(=O)N6)c(OC)n5)c4Cl)cccc32)c(C(F)(F)F)cc1CN1CC2(C(=O)O)CCC1CC2	26.4
CC[C@H](NCc1nc(C(F)(F)F)c(N[C@H]2CCc3c(-c4cccc(-c5ccc(CNC[C@@H]6CCC(=O)N6)c(OC)n5)c4Cl)cccc32)nc1OC)C(=O)O	16.6
COc1nc(-c2cccc(-c3cccc4c3CC[C@@H]4Nc3nc(OC)c(CN4C[C@@H]5CC[C@H]4[C@@H]5C(=O)O)nc3C(F)(F)F)c2Cl)ccc1CNC[C@@H]1CCC(=O)N1	19.9
COc1nc(N[C@H]2CCc3c(-c4cccc(-c5ccc(CNC[C@@H]6CCC(=O)N6)c(OCC#N)n5)c4Cl)cccc32)c(C(F)(F)F)cc1CN1CCC[C@]1(C)C(=O)O	18.1

[I] COc1nc(-c2cccc(-c3cccc4c3CC[C@@H]4Nc3nc(OC)c(CN4CC5(C(=O)O)CCC4CC5)nc3C(F)(F)F)c2Cl)ccc1CNC[C@@H]1CCC(=O)N1
[II] COc1nc(-c2cccc(-c3cccc4c3CC[C@@H]4Nc3nc(OC)c(CN4CC[C@@](C)(C(=O)O)C4)nc3C(F)(F)F)c2Cl)ccc1CNC[C@@H]1CCC(=O)N1
[III] COC(=O)[C@H](C)NCc1nc(C(F)(F)F)c(N[C@H]2CCc3c(-c4cccc(-c5ccc(CNC[C@@H]6CCC(=O)N6)c(OC)n5)c4Cl)cccc32)nc1OC
Qu. Sort ascending by AC50. Give the labels in the order requested.
Ans. I, II, III
(I: 15.7 nM, II: 29.1 nM, III: 110 nM)

====

Experimental system: UniProt:Q9NZQ7
Protocol description: PD-L1/PD-L1 dimerization biochemical protein-protein interaction assay (ALPHA)
Type: binding
Experimental setup: 0.5 nM His tagged PD-L1 and 0.5 nM FLAG tagged PD-L1, Table 4B, read-out: AC50 PDL1 Dimer 1 nM
Assay endpoint: AC50 (nM)

Below, each entry is followed by its recorded AC50 result.
Compound	Assay endpoint	Observed measurement
COc1nc(-c2cccc(-c3cccc4c3CC[C@@H]4Oc3nc(OCc4cncc(C#N)c4)c(CN4CC5(C(=O)O)CCC4CC5)cc3Cl)c2Cl)ccc1CNC[C@@H]1CCC(=O)N1	AC50	30.3
COc1nc(-c2cccc(-c3cccc4c3CC[C@@H]4Oc3nc(OC)c(CN4CCCCC(C(=O)O)C4)cc3Cl)c2Cl)ccc1CNC[C@@H]1CCC(=O)N1 (some centres unmarked)	AC50	52.6
COc1cc(-c2cccc(-c3cccc4c3CC[C@@H]4Oc3nc(OC)c(CNC4(C(=O)O)CC4)cc3Cl)c2Cl)cc(F)c1CNC[C@@H]1CCC(=O)N1	AC50	13.5
COc1nc(-c2cccc(-c3cccc4c3CC[C@@H]4Oc3nc(OC)c(CNC4(C(=O)O)CC4)cc3C(F)(F)F)c2Cl)ccc1CN1CC2(CCC(=O)N2)C1	AC50	15.2
COc1nc(-c2cccc(-c3cccc4c3CC[C@@H]4Oc3nc(OCc4cncc(Cl)c4)c(CN4CC[C@H](C(=O)O)C4)cc3Cl)c2Cl)ccc1CNC[C@@H]1CCC(=O)N1	AC50	19.1

[a] COc1nc(-c2cccc(-c3cccc4c3CC[C@@H]4Oc3nc(OC)c(CNC4(C(=O)O)CC4)cc3C(F)(F)F)c2Cl)ccc1CNC[C@H]1C[C@](C)(O)C1
[b] COc1nc(-c2cccc(-c3cccc4c3CC[C@@H]4Oc3nc(OC)c(CNCC(C)(C)C(=O)O)cc3C(F)(F)F)c2Cl)ccc1CN[C@H]1C[C@](C)(O)C1
Qu. Could you check which of a and b has a smaller value for AC50? Give the label under which the chosen entry appears.
Ans. a
(a: 11.9 nM, b: 18 nM)
